# tested-target: human 5-HT4(a) (Homo sapiens, UniProt Q13639)
# Sequence (Q13639 1-387 isoform Q13639-2): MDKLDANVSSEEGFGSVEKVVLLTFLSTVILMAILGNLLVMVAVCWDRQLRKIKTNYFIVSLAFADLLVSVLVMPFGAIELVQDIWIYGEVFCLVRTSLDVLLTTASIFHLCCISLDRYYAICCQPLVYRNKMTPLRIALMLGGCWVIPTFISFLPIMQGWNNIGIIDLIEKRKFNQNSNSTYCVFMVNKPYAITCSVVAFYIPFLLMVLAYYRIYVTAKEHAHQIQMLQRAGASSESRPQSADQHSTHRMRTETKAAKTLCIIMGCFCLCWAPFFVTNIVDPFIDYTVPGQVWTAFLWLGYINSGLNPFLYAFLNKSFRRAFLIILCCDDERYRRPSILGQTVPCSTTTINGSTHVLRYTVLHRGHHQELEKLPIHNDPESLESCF
# experiment-description: Evaluation of agonistic activity in CHO-K1 cells expressing human 5-HT4(a) (GeneBlAzer HTR4-CRE-bla CHO-K1, beta-lactamase reporter)
# test-settings: CHO-K1 cells stably expressing human 5-HT4(a)
EC50 strictly under 0.03 nM means met; at 0.03 nM or over means not met.

>  <compound>
CCCc1cc(N2CCC[C@H]2C)nc(Nc2ccc(C)c(Cl)c2)n1

>  <tested-target>
human 5-HT4(a) (Homo sapiens, UniProt Q13639)

>  <label>
not met

$$$$
>  <compound>
CCCc1cc(N2CC[C@H](NC(=O)Cc3ccc(F)cc3)C2)nc(Nc2cccc(C#N)c2)n1

>  <tested-target>
human 5-HT4(a) (Homo sapiens, UniProt Q13639)

>  <label>
not met

$$$$
>  <compound>
CCCc1cc(N2CC[C@H](NC(=O)CCN(C)C)C2)nc(Nc2cccc(C#N)c2)n1

>  <tested-target>
human 5-HT4(a) (Homo sapiens, UniProt Q13639)

>  <label>
not met

$$$$

Query: Report whether reported EC50 is lower than 0.03 nM (strictly) for "CCCc1cc(N2CC[C@H](NC(C)=O)C2)nc(Nc2ccc(C)c(F)c2)n1"
Reply: not met

Query: In the record for "CCCc1cc(N2CC[C@H](NC(=O)Cc3ccccc3)C2)nc(Nc2ccc(C)c(C#N)c2)n1" , is EC50 less than 0.03 nM?
Reply: not met

Query: Please let me know if "CCCc1cc(N2CC[C@H](NC(=O)COCc3ccccc3)C2)nc(Nc2cccc(C#N)c2)n1" shows EC50 below 0.03 nM.
Reply: not met

Query: # check: EC50 < 0.03 nM for "CCCc1cc(N2CCC[C@H]2COC)nc(Nc2ccc3cc[nH]c3c2)n1"
Reply: met

* * *

# tested-target: human 5-HT4(a) (Homo sapiens, UniProt Q13639)
# experiment-description: Evaluation of agonistic activity in CHO-K1 cells expressing human 5-HT4(a) (GeneBlAzer HTR4-CRE-bla CHO-K1, beta-lactamase reporter)
# test-settings: CHO-K1 cells stably expressing human 5-HT4(a)
Consider the following molecules and their measured log10(EC50) readings.
Remember, log10 of EC50, in nM.

>  <molecule>
CCCc1cc(N2CC[C@H](NC(=O)CO)C2)nc(Nc2ccc(F)c(N)c2)n1

>  <tested-target>
human 5-HT4(a) (Homo sapiens, UniProt Q13639)

>  <measured-property>
log10(EC50)

>  <result-number>
-1.62

$$$$
>  <molecule>
CCCc1cc(N2CC[C@H](NC)C2)nc(Nc2cc(N)cc(C(F)(F)F)c2)n1

>  <tested-target>
human 5-HT4(a) (Homo sapiens, UniProt Q13639)

>  <measured-property>
log10(EC50)

>  <result-number>
-2.68

$$$$
>  <molecule>
CCCc1cc(N2CC[C@H](NC(=O)CN)C2)nc(Nc2cccc(C#N)c2)n1

>  <tested-target>
human 5-HT4(a) (Homo sapiens, UniProt Q13639)

>  <measured-property>
log10(EC50)

>  <result-number>
-1.09

$$$$
>  <molecule>
CCCc1cc(N2CC[C@H](NC(=O)CO)C2)nc(Nc2ccc(F)c(C(F)(F)F)c2)n1

>  <tested-target>
human 5-HT4(a) (Homo sapiens, UniProt Q13639)

>  <measured-property>
log10(EC50)

>  <result-number>
-2.02

$$$$
>  <molecule>
CCCc1cc(N2CCC(NC(C)=O)C2)nc(Nc2ccc3cc[nH]c3c2)n1 (stereo not shown)

>  <tested-target>
human 5-HT4(a) (Homo sapiens, UniProt Q13639)

>  <measured-property>
log10(EC50)

>  <result-number>
-1.70

$$$$

Query: Any idea what log10(EC50) came out for "CCCCCC(=O)N[C@H]1CCN(c2cc(CCC)nc(Nc3cccc(C#N)c3)n2)C1" on human 5-HT4(a) (Homo sapiens, UniProt Q13639)?
Reply: -0.39

Query: Notebook entry, human 5-HT4(a) (Homo sapiens, UniProt Q13639) assay: log10(EC50) of "CCCc1cc(N2CC[C@H](NCc3cc(C)c(C)o3)C2)nc(Nc2ccc(C)c(C#N)c2)n1" = ?
Reply: -1.70
